The measured values listed here are drawn from paper PMC8161026.

- Tested on: HCT-15
Measured log10 of GI50, listed per entry.
Could you please treat all values as log10 of GI50 in nM?

# example entries with known answers
O=C1/C(=C/C(Cl)=C/c2ccc([N+](=O)[O-])cc2)SC(=S)N1c1ccc(O)cc1 ... 2.61
O=C1NC(=S)S/C1=C\C(Cl)=C\c1ccc([N+](=O)[O-])cc1 ... 3.25
O=C(O)C(Cc1ccccc1)N1C(=O)/C(=C/C(Cl)=C/c2ccc([N+](=O)[O-])cc2)SC1=S (centres unmarked) ... 3.28

Provide value of log10 of GI50 for this record tested with HCT-15: `O=C(O)CCN1C(=O)/C(=C/C(Cl)=C/c2ccc([N+](=O)[O-])cc2)SC1=S`
2.36

Provide value of log10 of GI50 for this record tested with HCT-15: `O=C1/C(=C/C(Cl)=C/c2ccc([N+](=O)[O-])cc2)SC(=S)N1/N=C\C(Cl)=C\c1ccc([N+](=O)[O-])cc1`
4.22

###

Measured SI (selectivity index), LC50, listed per entry.
- Test system: Breast Cancer subpanel
- Test protocol: cells
- Setup conditions: full panel MG_MID / Breast Cancer subpanel MG_MID

# example entries with known answers
O=C(O)CCN1C(=O)/C(=C/C(Cl)=C/c2ccc([N+](=O)[O-])cc2)SC1=S ... 1.31
O=C1/C(=C/C(Cl)=C/c2ccc([N+](=O)[O-])cc2)SC(=S)N1/N=C\C(Cl)=C\c1ccc([N+](=O)[O-])cc1 ... 0.91
O=C1NC(=S)S/C1=C\C(Cl)=C\c1ccc([N+](=O)[O-])cc1 ... 0.93

Could you share which SI (selectivity index), LC50 value was measured for O=C(O)C(Cc1ccccc1)N1C(=O)/C(=C/C(Cl)=C/c2ccc([N+](=O)[O-])cc2)SC1=S (centres unmarked) ?
0.87

Could you share which SI (selectivity index), LC50 value was measured for `O=C1/C(=C/C(Cl)=C/c2ccc([N+](=O)[O-])cc2)SC(=S)N1c1ccc(O)cc1` ?
0.82

###

Measured SI (selectivity index), LC50, listed per entry.
- Test system: Prostate Cancer subpanel
- Test protocol: cells
- Setup conditions: full panel MG_MID / Prostate Cancer subpanel MG_MID
Lab note: write the figure by itself, no unit.

# example entries with known answers
O=C(O)CCN1C(=O)/C(=C/C(Cl)=C/c2ccc([N+](=O)[O-])cc2)SC1=S [Compound 2h] ... 1.38
O=C1/C(=C/C(Cl)=C/c2ccc([N+](=O)[O-])cc2)SC(=S)N1/N=C\C(Cl)=C\c1ccc([N+](=O)[O-])cc1 [Compound 2c] ... 1.09
O=C1/C(=C/C(Cl)=C/c2ccc([N+](=O)[O-])cc2)SC(=S)N1c1ccc(O)cc1 [Compound 2f] ... 1.08
O=C1NC(=S)S/C1=C\C(Cl)=C\c1ccc([N+](=O)[O-])cc1 [Compound 2b] ... 1.11

Provide value of SI (selectivity index), LC50 for this record tested with Prostate Cancer subpanel: O=C(O)C(Cc1ccccc1)N1C(=O)/C(=C/C(Cl)=C/c2ccc([N+](=O)[O-])cc2)SC1=S (centres unmarked) [Compound 2j]
1.32

###

Measured CC50, listed per entry.
- Test system: Prostate Cancer subpanel
- Test protocol: cells
- Setup conditions: Homo sapiens, read-out: MG_MID, LC50
Please state the figure in µM; there is no need to write the unit.

O=C1NC(=S)S/C1=C\C(Cl)=C\c1ccc([N+](=O)[O-])cc1 ... 39.2
O=C1/C(=C/C(Cl)=C/c2ccc([N+](=O)[O-])cc2)SC(=S)N1c1ccc(O)cc1 ... 75.1
O=C(O)CCN1C(=O)/C(=C/C(Cl)=C/c2ccc([N+](=O)[O-])cc2)SC1=S ... 47.1

Could you share which CC50 value was measured for O=C(O)C(Cc1ccccc1)N1C(=O)/C(=C/C(Cl)=C/c2ccc([N+](=O)[O-])cc2)SC1=S (stereo not shown) ?
55.9

###

- System: TK-10
- Test protocol: NCI DTP 60 cell line screen, SRB
- Setup conditions: TK-10 (Renal Cancer), 48 h, SRB
Readout: TGI (µM)
Please state the figure in µM; there is no need to write the unit.

Could you share which TGI value was measured for `O=C1/C(=C/C(Cl)=C/c2ccc([N+](=O)[O-])cc2)SC(=S)N1c1ccc(O)cc1` ?
29.0

Could you share which TGI value was measured for `O=C(O)CCN1C(=O)/C(=C/C(Cl)=C/c2ccc([N+](=O)[O-])cc2)SC1=S` ?
16.9

Could you share which TGI value was measured for `O=C1/C(=C/C(Cl)=C/c2ccc([N+](=O)[O-])cc2)SC(=S)N1/N=C\C(Cl)=C\c1ccc([N+](=O)[O-])cc1` ?
69.6

Could you share which TGI value was measured for `O=C1NC(=S)S/C1=C\C(Cl)=C\c1ccc([N+](=O)[O-])cc1` ?
23.2

###

Here we list compounds with their recorded GI50 when tested on DLD-1 (human colon cancer).
Please state the figure in µM; there is no need to write the unit.

O=C(Cc1ccccc1Nc1c(Cl)cccc1Cl)NN1C(=O)/C(=C/C(Cl)=C/c2ccc([N+](=O)[O-])cc2)SC1=S [Compound 2e] ... 16

Provide value of GI50 for this record tested with DLD-1 (human colon cancer): O=C1/C(=C/C(Cl)=C/c2ccc([N+](=O)[O-])cc2)SC(=S)N1CCS(=O)(=O)O [Compound 2g]
27.5

Provide value of GI50 for this record tested with DLD-1 (human colon cancer): O=C1/C(=C/C(Cl)=C/c2ccc([N+](=O)[O-])cc2)SC(=S)N1/N=C\C(Cl)=C\c1ccc([N+](=O)[O-])cc1 [Compound 2c]
6.34

Provide value of GI50 for this record tested with DLD-1 (human colon cancer): O=C1NC(=S)S/C1=C\C(Cl)=C\c1ccc([N+](=O)[O-])cc1 [Compound 2b]
8.39

Provide value of GI50 for this record tested with DLD-1 (human colon cancer): O=C(O)CCCCCN1C(=O)/C(=C/C(Cl)=C/c2ccc([N+](=O)[O-])cc2)SC1=S [Compound 2i]
9.22

Provide value of GI50 for this record tested with DLD-1 (human colon cancer): O=C(O)CCC(C(=O)O)N1C(=O)/C(=C/C(Cl)=C/c2ccc([N+](=O)[O-])cc2)SC1=S (stereo not shown) [Compound 2l]
9.19

Provide value of GI50 for this record tested with DLD-1 (human colon cancer): O=C(O)CC(C(=O)O)N1C(=O)/C(=C/C(Cl)=C/c2ccc([N+](=O)[O-])cc2)SC1=S (stereo not shown) [Compound 2k]
10

###

- Test system: UO-31
- Test protocol: NCI DTP 60 cell line screen, SRB
- Setup conditions: Homo sapiens, UO-31, 48 h, read-out: LC50
Readout: CC50 (µM)
Please state the figure in µM; there is no need to write the unit.

Could you share which CC50 value was measured for O=C1/C(=C/C(Cl)=C/c2ccc([N+](=O)[O-])cc2)SC(=S)N1/N=C\C(Cl)=C\c1ccc([N+](=O)[O-])cc1 [Compound 2c] ?
59.1

Could you share which CC50 value was measured for O=C(O)C(Cc1ccccc1)N1C(=O)/C(=C/C(Cl)=C/c2ccc([N+](=O)[O-])cc2)SC1=S (centres unmarked) [Compound 2j] ?
6.05

Could you share which CC50 value was measured for O=C(O)CCN1C(=O)/C(=C/C(Cl)=C/c2ccc([N+](=O)[O-])cc2)SC1=S [Compound 2h] ?
6.31

###

- Tested on: SNB-19
- Test protocol: NCI DTP 60 cell line screen, SRB
- Setup conditions: SNB-19 (CNS Cancer), 48 h, SRB
Measured TGI, listed per entry.
Please state the figure in µM; there is no need to write the unit.

Could you share which TGI value was measured for `O=C1/C(=C/C(Cl)=C/c2ccc([N+](=O)[O-])cc2)SC(=S)N1c1ccc(O)cc1` ?
32.0

Could you share which TGI value was measured for `O=C1NC(=S)S/C1=C\C(Cl)=C\c1ccc([N+](=O)[O-])cc1` ?
21.4

Could you share which TGI value was measured for `O=C(O)CCN1C(=O)/C(=C/C(Cl)=C/c2ccc([N+](=O)[O-])cc2)SC1=S` ?
26.3

###

Measured CC50, listed per entry.
- Test system: SK-OV-3
- Test protocol: NCI DTP 60 cell line screen, SRB
- Setup conditions: Homo sapiens, SK-OV-3, 48 h, read-out: LC50

O=C(O)C(Cc1ccccc1)N1C(=O)/C(=C/C(Cl)=C/c2ccc([N+](=O)[O-])cc2)SC1=S (centres unmarked) ... > 100 µM

Could you share which CC50 value was measured for `O=C1/C(=C/C(Cl)=C/c2ccc([N+](=O)[O-])cc2)SC(=S)N1c1ccc(O)cc1` ?
> 100 µM

Could you share which CC50 value was measured for `O=C1/C(=C/C(Cl)=C/c2ccc([N+](=O)[O-])cc2)SC(=S)N1/N=C\C(Cl)=C\c1ccc([N+](=O)[O-])cc1` ?
> 100 µM

Could you share which CC50 value was measured for `O=C1NC(=S)S/C1=C\C(Cl)=C\c1ccc([N+](=O)[O-])cc1` ?
> 50 µM

Could you share which CC50 value was measured for `O=C(O)CCN1C(=O)/C(=C/C(Cl)=C/c2ccc([N+](=O)[O-])cc2)SC1=S` ?
77.6 µM
